Molecular target: α-amylase
Assay: In vitro α-amylase inhibitory assay
Conditions: read-out: The α-amylase activity: IC50 ± SD; DF = 100
pIC50: −log10 of the molar value.
Quantity: pIC50

(A) N#CC(C#N)=C(N)c1cc2cc(S(N)(=O)=O)ccc2oc1=N
(B) NS(=O)(=O)c1ccc2oc(=O)c(C(=O)Nc3cccc(C(F)(F)F)c3)cc2c1
(C) NS(=O)(=O)c1ccc2oc(=O)c(C(=O)Nc3ccc(F)cc3)cc2c1
Input line: Sort the items above on pIC50, descending. # respond with the labels, arranged in the requested order
Output line: C, B, A
(C: 5.68, B: 5.36, A: 4.84)
